A collection of binders and their measured % of binding in the absence of HGF
- MEASURED_ON: T1, cMet-Fc fusion protein (extracellular domain of the cMet receptor expressed as an Fc-fusion protein) (human, UniProt P08581 25-932)
- T1 construct: extracellular domain; also called soluble cMet-Fc-fusion protein; soluble cMet receptor; not shown: Fc part
- ASSAY_DETAILS: phage ELISA on cMet-Fc, competitor HGF 100 ng/mL
Ends that are not written are not given here.
The reply should consist of the numeric value with the unit placed after it.

Solved entries:
BINDER	% of binding in the absence of HGF
GSLYRCLGEASPTPPCAYEAP [445-G12 peptide-displaying phage (SEQ ID NO: 380)]	85%
AQDLKPWTAGWEPPWLWTDRGP [104-C09 peptide-displaying phage (SEQ ID NO: 461)]	64%
GSSQICAVYLDDTHNCERHAP [465-A03 peptide-displaying phage (SEQ ID NO: 373)]	33%
GSWIICWWDNCGSSAP [571-C05 peptide-displaying phage (SEQ ID NO: 001)]	102%
AQRPEAHYKLAMSYPIIPRTKT [96-H12 peptide-displaying phage (SEQ ID NO: 452)]	88%

Asked: Query % of binding in the absence of HGF for AGWGWCSGPPMFMCTEYGT [551-A05 peptide-displaying phage (SEQ ID NO: 099)]
Given back: 68%

Asked: Query % of binding in the absence of HGF for AGQFYCSGPPTFQCIMIGT (not fully specified (bridges); cysteine pairing not given here) [550-F11 peptide-displaying phage (SEQ ID NO: 089)]
Given back: 58%
